Experiment Summary: Inhibition of Haemophilus influenzae acetyltransferase activity of GlmU using acetyl-CoA and glucosamine-1-phosphate after 30 mins by Ellman's method
pIC50: −log10 of the molar value.
Outcome Measure: pIC50

Guide cases for pIC50, answers given:
INSERT INTO results (compound, outcome_measure, reported_value) VALUES
  ('COc1cc(OC)c(S(=O)(=O)N2c3ccccc3CCC2C)cc1NC(=O)COCC(=O)O (stereo unspecified)', 'pIC50', 6.52),
  ('COc1cc(OC)c(S(=O)(=O)N2c3ccccc3CCC2C)cc1NC(=O)COC(C)=O (stereo unspecified)', 'pIC50', 5.70),
  ('COc1cc(OC)c(S(=O)(=O)N2c3ccccc3CCC2C)cc1NC(=O)CSCC(=O)O (stereo unspecified)', 'pIC50', 6.70),
  ('COc1cc(OC)c(S(=O)(=O)NCc2ccccc2-c2ccc(C(=O)O)cc2)cc1NC(=O)CCC(=O)O', 'pIC50', 5.30),
  ('COc1cc(OC)c(S(=O)(=O)Nc2cccc(C)c2)cc1NC(C)=O', 'pIC50', 4.40),
  ('COc1cc(OC)c(S(=O)(=O)NCc2ccccc2N2CCCCC2)cc1NC(=O)CCC(=O)O', 'pIC50', 5.30);

[a] COc1cc(OC)c(S(=O)(=O)N2c3ccccc3CCC2C)cc1NC(=O)/C=C/C(=O)O (stereo unspecified)
[b] COc1cc(OC)c(S(=O)(=O)N2c3ccccc3CCC2C)cc1NC(=O)NCC(=O)O (stereo unspecified)
Inquiry: Name the one with the greater pIC50 value, either a or b as given. Answer with the label corresponding to your selection.
Reply text: a
(a: 5.70, b: 5.30)

[P] COc1cc(OC)c(S(=O)(=O)N(C)c2ccccc2)cc1NC(C)=O
[Q] COc1cc(OC)c(S(=O)(=O)Nc2ccc(F)cc2)cc1NC(C)=O
[R] COc1cc(OC)c(S(=O)(=O)Nc2cccc(F)c2)cc1NC(C)=O
Inquiry: Order the 3 compounds from highest to lowest pIC50. // respond by listing labels in the order requested
Reply text: P, R, Q
(P: 5.22, R: 4.52, Q: 4.22)

[1] COc1cc(OC)c(S(=O)(=O)NCc2ccccc2N2CCC(CO)CC2)cc1NC(=O)CCC(=O)O
[2] COc1cc(OC)c(S(=O)(=O)NCc2ccccc2N2CCC(CO)CC2)cc1NC(C)=O
Inquiry: Name the one with the greater pIC50 value, either 1 or 2 as given. Answer with the label corresponding to your selection.
Reply text: 1
(1: 5.22, 2: 4.10)

* * *

Study Target: Bifunctional protein GlmU (Streptococcus pneumoniae serotype 4 (strain ATCC BAA-334 / TIGR4), UniProt Q97R46)
Sequence (Q97R46 whole entry): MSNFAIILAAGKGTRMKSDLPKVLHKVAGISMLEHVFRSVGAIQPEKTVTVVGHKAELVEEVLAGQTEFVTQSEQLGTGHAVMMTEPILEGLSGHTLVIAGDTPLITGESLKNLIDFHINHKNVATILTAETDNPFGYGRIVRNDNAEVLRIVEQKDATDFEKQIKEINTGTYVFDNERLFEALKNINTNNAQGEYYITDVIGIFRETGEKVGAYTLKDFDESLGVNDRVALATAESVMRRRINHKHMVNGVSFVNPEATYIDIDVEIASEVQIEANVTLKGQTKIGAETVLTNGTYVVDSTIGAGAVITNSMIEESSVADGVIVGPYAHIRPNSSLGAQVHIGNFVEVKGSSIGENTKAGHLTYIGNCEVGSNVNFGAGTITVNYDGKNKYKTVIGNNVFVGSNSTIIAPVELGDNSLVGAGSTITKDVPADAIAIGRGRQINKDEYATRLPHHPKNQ
Experiment Summary: Inhibition of Streptococcus pneumoniae acetyltransferase activity of GlmU using acetyl-CoA and glucosamine-1-phosphate after 30 mins by Ellman's method
pIC50: −log10 of the molar value.
Outcome Measure: pIC50

INSERT INTO assay_data (compound, outcome_measure, reported_value) VALUES
  ('COc1ccccc1CNS(=O)(=O)c1cc(NC(C)=O)c(OC)cc1OC', 'pIC50', '< 3.70'),
  ('COc1cc(OC)c(S(=O)(=O)N2c3ccccc3CCC2C)cc1NC(=O)NCC(=O)O (stereo not given)', 'pIC50', 4.70),
  ('COc1cc(OC)c(S(=O)(=O)Nc2cccc(F)c2)cc1NC(C)=O', 'pIC50', '< 3.70'),
  ('COc1cc(OC)c(S(=O)(=O)N2c3ccccc3CCC2C)cc1NC(=O)CSc1ccncc1 (stereo not given)', 'pIC50', '< 3.70');

Inquiry: Item under review: COc1cc(OC)c(S(=O)(=O)N2c3ccccc3CCC2C)cc1NC(=O)COC(C)=O (stereo not given) . Reported pIC50?
Reply text: 4.05

Inquiry: What about this compound? COc1cc(OC)c(S(=O)(=O)NCc2ccccc2N2CCCCC2)cc1NC(=O)CCC(=O)O
Reply text: 4.92

Inquiry: What about this compound? COc1cc(OC)c(S(=O)(=O)NCc2ccc3c(c2)OCO3)cc1NC(C)=O
Reply text: < 3.70

Inquiry: What about this compound? COc1cc(OC)c(S(=O)(=O)N2c3ccccc3CCC2C)cc1NC(=O)CCC(=O)O (stereo not given)
Reply text: 4.70

Inquiry: What about this compound? COc1cc(OC)c(S(=O)(=O)Nc2ccccc2F)cc1NC(C)=O
Reply text: < 3.70

Inquiry: What about this compound? COc1cc(OC)c(S(=O)(=O)N2c3ccccc3CCC2C)cc1NC(=O)c1ccccc1 (stereo not given)
Reply text: < 3.70

Inquiry: What about this compound? COc1cc(OC)c(S(=O)(=O)N2CCCC2C)cc1NC(C)=O (stereo not given)
Reply text: < 3.70

Inquiry: What about this compound? COc1cc(OC)c(S(=O)(=O)NCc2ccccc2Br)cc1NC(C)=O
Reply text: < 3.70

Inquiry: What about this compound? COc1cc(OC)c(S(=O)(=O)N2c3ccccc3CCC2C)cc1NC(=O)CSCC(=O)O (stereo not given)
Reply text: < 3.70

Inquiry: What about this compound? COc1cc(OC)c(S(=O)(=O)NCc2ccccc2N2CCC(C(=O)O)CC2)cc1NC(=O)CCC(=O)O
Reply text: 5.70

Inquiry: What about this compound? COc1cc(OC)c(S(=O)(=O)N2c3ccccc3CCC2C)cc1NC(=O)/C=C/C(=O)O (stereo not given)
Reply text: 5.00

Inquiry: What about this compound? COc1cc(OC)c(S(=O)(=O)N2c3ccccc3CCC2C)cc1NS(C)(=O)=O (stereo not given)
Reply text: < 3.70

Inquiry: What about this compound? COc1cc(OC)c(S(=O)(=O)Nc2ccc(F)cc2)cc1NC(C)=O
Reply text: < 3.70

Inquiry: What about this compound? COc1cc(OC)c(S(=O)(=O)NCc2ccccc2N2CCC(CC(=O)O)CC2)cc1NC(=O)CCC(=O)O
Reply text: 5.70

Inquiry: What about this compound? CCN(c1ccccc1C)S(=O)(=O)c1cc(NC(C)=O)c(OC)cc1OC
Reply text: < 3.70

Inquiry: What about this compound? COc1cc(OC)c(S(=O)(=O)N2c3ccccc3CC2C)cc1NC(C)=O (stereo not given)
Reply text: < 3.70

* * *

Experiment Summary: Lipophilicity, log D of the compound at pH 7.4
Conditions: buffer
Outcome Measure: logD

Guide cases for logD, answers given:
INSERT INTO results (molecule, outcome_measure, reported_value) VALUES
  ('COc1cc(OC)c(S(=O)(=O)N2c3ccccc3CCC2C)cc1NC(=O)CSCC(=O)O (stereo not given)', 'logD', -1.2),
  ('COc1cc(OC)c(S(=O)(=O)NCc2ccccc2N2CCCCC2)cc1NC(=O)CCC(=O)O', 'logD', -0.72),
  ('COc1cc(OC)c(S(=O)(=O)N2c3ccccc3CCC2C)cc1NC(=O)CSc1ccncc1 (stereo not given)', 'logD', 2.8);

[P] COc1cc(OC)c(S(=O)(=O)NCc2ccccc2N2CCC(COC(=O)CCC(=O)O)CC2)cc1NC(=O)CCC(=O)O
[Q] COc1cc(OC)c(S(=O)(=O)N2c3ccccc3CCC2C)cc1NC(C)=O (stereo not given)
Inquiry: Field: lower logD | Options: P / Q Answer with the label corresponding to your selection.
Reply text: P
(P: -1, Q: 1.97)

* * *

Experiment Summary: Lipophilicity, log D of the compound at pH 7.4
Conditions: buffer
Outcome Measure: logD

INSERT INTO measurements (molecule, reported_value) VALUES
  ('COc1cc(OC)c(S(=O)(=O)N2c3ccccc3CCC2C)cc1NC(=S)NCC(=O)O (stereo unspecified)', -1.04);

[I] COc1cc(OC)c(S(=O)(=O)N2c3ccccc3CCC2C)cc1NC(=O)NCC(=O)O (stereo unspecified)
[II] COc1cc(OC)c(S(=O)(=O)NCc2ccccc2N2CCC(CO)CC2)cc1NC(C)=O
Inquiry: Field: lower logD | Options: I / II Answer with the label corresponding to your selection.
Reply text: I
(I: -1.02, II: 1.03)

* * *

Study Target: Bifunctional protein GlmU (Streptococcus pneumoniae serotype 4 (strain ATCC BAA-334 / TIGR4), UniProt Q97R46)
Experiment Summary: Inhibition of Streptococcus pneumoniae acetyltransferase activity of GlmU using acetyl-CoA and glucosamine-1-phosphate after 30 mins by Ellman's method
Outcome Measure: IC50

Guide cases for IC50, answers given:
INSERT INTO assay_data (molecule, reported_value) VALUES
  ('COc1cc(OC)c(S(=O)(=O)N2c3ccccc3CCC2C)cc1NC(C)=O (stereo not given)', '55 µM'),
  ('COc1cc(OC)c(S(=O)(=O)N2CCCCC2C)cc1NC(C)=O (stereo not given)', '> 200 µM'),
  ('COc1cc(OC)c(S(=O)(=O)N2CCCCC2)cc1NC(C)=O', '> 200 µM'),
  ('COc1cc(OC)c(S(=O)(=O)NCc2ccccc2N2CCC(CO)CC2)cc1NC(=O)CCC(=O)O', '5 µM'),
  ('COc1cc(OC)c(S(=O)(=O)N(c2ccccc2)C(C)C)cc1NC(C)=O', '> 200 µM'),
  ('COc1cc(OC)c(S(=O)(=O)Nc2cccc(C)c2)cc1NC(C)=O', '> 200 µM'),
  ('COc1cc(OC)c(S(=O)(=O)N2c3ccccc3CCC2C)cc1NC(=S)NCC(=O)O (stereo not given)', '30 µM'),
  ('COc1cc(OC)c(S(=O)(=O)NCc2ccccc2-c2ccc(C(=O)O)cc2)cc1NC(=O)CCC(=O)O', '15 µM'),
  ('COc1cc(OC)c(S(=O)(=O)N(C)c2ccccc2)cc1NC(C)=O', '> 200 µM'),
  ('COc1cc(OC)c(S(=O)(=O)Nc2ccc(C)cc2)cc1NC(C)=O', '> 200 µM');

Inquiry: Item under review: COC(=O)c1ccccc1CNS(=O)(=O)c1cc(NC(C)=O)c(OC)cc1OC . Reported IC50?
Reply text: > 200 µM

Inquiry: What about this molecule? COc1cc(OC)c(S(=O)(=O)NCc2ccccc2N2CCC(CO)CC2)cc1NC(C)=O
Reply text: 70 µM

Inquiry: What about this molecule? COc1cc(OC)c(S(=O)(=O)N2c3ccccc3CCC2C)cc1NC(=O)COc1ccc(C(C)=O)cc1 (stereo not given)
Reply text: > 200 µM

Inquiry: What about this molecule? COc1cc(OC)c(S(=O)(=O)N(C)C)cc1NC(C)=O
Reply text: > 200 µM

Inquiry: What about this molecule? COc1cc(OC)c(S(=O)(=O)Nc2ccccc2)cc1NC(C)=O
Reply text: > 200 µM
